// values below are reported MIC P. vulgaris
Tested on: Proteus vulgaris
Assay: MIC against Gram-negative bacteria: Proteus vulgaris
Format: cell-based
Settings: 10 h cultivation at 37° C., 5×10^5 CFU/mL, two-fold serial dilution
Numeric only. Scale: mg/L

Consider the following illustrative entries.
Lookup: Consider the substance shown here: PRT1167 (NINDCESNPCRNGGTCIDGVNSYKCICSDGWEGAYCE; listed as Homo sapiens) What is its recorded MIC P. vulgaris?
Found: 25

Lookup: Any idea what MIC P. vulgaris was measured for PRT1094 (GDNSCKSNPCHNGGVCHSRWDDFSCSCPALTSGKACE; listed as Homo sapiens) ?
Found: 50

Lookup: Field request: MIC P. vulgaris | item: PRT1169 (RDSQCDEATCNNGGTCYDEGDAFKCMCPGGWEGTTCN; listed as Homo sapiens)
Found: 12.5

Lookup: Please give the measured MIC P. vulgaris for this substance: PRT1051 (EQKLCKLRKGNCSSTVCGQDLQSHLCMCAEGYALSRDRKYCE; listed as Homo sapiens)
Found: 12.5

Lookup: Requested read-out: MIC P. vulgaris. Entry: PRT1143 (NLDECLSEPCLHDGVCIDGINHYTCDCKSGFFGTHCE; listed as Homo sapiens)
Found: 50

Others:
Lookup: Suppose we examine the substance PRT1140 (DVKDCLFLSCQDYGDCEDMVNNFRCICRPGFSGSLCE; listed as Homo sapiens) ; what MIC P. vulgaris value has been reported?
Found: 50

Lookup: Suppose we examine the substance PRT1089 (ANPCCSHPCQNRGVCMSVGFDQYKCDCTRTGFYGENCS; listed as Homo sapiens) ; what MIC P. vulgaris value has been reported?
Found: 50

Lookup: Request the reported MIC P. vulgaris associated with PRT1171 (NTNDCSPHPCYNSGTCVDGDNWYRCECAPGFAGPDCR; listed as Homo sapiens)
Found: 50

====

Test system: Citrobacter diversus
Assay: MIC against Gram-negative bacteria: Citrobacter diversus
Format: cell-based
Conditions: Citrobacter diversus; 96-well plate, 5×10^5 CFU/mL, 37° C., 10 h
Measured MIC (μg/mL) C. diversus of individual entries
Report the figure in µg/mL without appending any unit label.

Completed entries (count: 5):
Lookup: Bench note: what MIC (μg/mL) C. diversus did PRT135 (PGHCSSYGSICHNGGKCVEKHNGYLCDCTNSPYEGPFCK; listed as Homo sapiens) show?
Found: 25

Lookup: # query: MIC (μg/mL) C. diversus of entry PRT94 (DVNECNAHPCFPRVRCINTSPGFRCEACPPGYSGPTHQGVGLAFAKANKQVCT; listed as Homo sapiens)
Found: 50

Lookup: Please report the recorded MIC (μg/mL) C. diversus for PRT95 (DINECETGQHNCVPNSVCINTRGSFQCGPCQPGFVGDQASGCQ; listed as Homo sapiens) .
Found: 50

Lookup: So what does the record say about MIC (μg/mL) C. diversus for PRT62 (ASGDCVPSPCHNGGTCLEEEEGVRCLCLPGYGGDLCD; listed as Homo sapiens) ?
Found: 12.5

Lookup: Which MIC (μg/mL) C. diversus is reported for this substance? PRT80 (TNVCDLNPCEHQSVCTRKPSAPHGYTCECPPNYLGPYCE; listed as Homo sapiens)
Found: 12.5

Next:
Lookup: Query (substance): PRT130 (ITDRCLPSYCEHGGECSQSWDTFSCDCLGTGYTGETCH; listed as Homo sapiens) ; field requested: MIC (μg/mL) C. diversus
Found: 50

Lookup: Dear colleague, I am looking for the recorded MIC (μg/mL) C. diversus of the following substance: PRT107 (DRCLPSYCEHGGECSQSWDTFSCDCLGTGYTGETC; listed as Homo sapiens)
Found: 25

Lookup: Item under review: PRT73 (TNGQCQCKENYYKLLAQDTCLPCDCFPHGSHSRTCD; listed as Homo sapiens) . Reported MIC (μg/mL) C. diversus?
Found: 12.5

Lookup: Suppose we examine the substance PRT1498 (PESPCLQNPCQNDGQCREQGATFTCECEVGYGGGLCM; listed as Homo sapiens) ; what MIC (μg/mL) C. diversus value has been reported?
Found: 50

Lookup: What does the data say about its MIC (μg/mL) C. diversus? Entry: PRT38 (VRDLCGQRTTDACEQLCDPETGECSCHEGYAPDPVHRHLCV; listed as Homo sapiens)
Found: 50

Lookup: Quick one: MIC (μg/mL) C. diversus for PRT10 (NCSAQCHNHGVCNHKQECHCHAGWAPPHCA; listed as Homo sapiens) ?
Found: 25

Lookup: I'd like to know its MIC (μg/mL) C. diversus. The substance in question is PRT64 (PCSSSPCRGGATCALGPHGKNYTCRCPQGYQLDSSQLDCV; listed as Homo sapiens)
Found: 50

Lookup: Given PRT85 (KLHFCDSGPCKNSGFCSERWGSFSCDCPVGFGGKDCQ; listed as Homo sapiens) , state its recorded MIC (μg/mL) C. diversus.
Found: 25

Lookup: Fill in: MIC (μg/mL) C. diversus of PRT72 (NKLDLPCPRGWWGNPVCGPCHCAVSKGFDPDCN; listed as Homo sapiens) is ___
Found: 12.5

Lookup: Value lookup for MIC (μg/mL) C. diversus; key = PRT32 (RCEAQKWGPECNHLCTACMNNGVCHEDTGECICPPGFMGRTCE; listed as Homo sapiens)
Found: 12.5

Lookup: Give its MIC (μg/mL) C. diversus value. Item: PRT39 (PVRDCSRNNGGCTRNFKCVSDRQVDSSGCVCPEELKPMKDGSGCY; listed as Homo sapiens)
Found: 50
